The reported measurements were obtained from patent US10626349B2.

assay: Solubility of the surfactant; settings: aqueous solution
The reader will find reported solubility in aqueous solutions (concentration dissolved to) values listed item by item below.
Reply with just the number (in %).

The following molecules have reported results that may help.
[[record]]
molecule = "CCCCCC/C=C/C(C)OC(=O)NCC(O)CS(=O)(=O)[O-].[Na+] (stereo not shown)"
value_reported = 0.5

[[record]]
molecule = "CCCCCCCCCCC(OC(=O)NCCCS(=O)(=O)O)c1ccc(Br)o1 (stereo not shown)"
value_reported = 0.5

[[record]]
molecule = "CCCCCCCCCCOc1ccc(C(OCCN(CCCCS(=O)(=O)[O-])CCCCS(=O)(=O)[O-])(c2ccccc2)c2ccccc2)cc1.[Na+].[Na+]"
value_reported = 1


Let's switch to this molecule now.
Data request: # query: solubility in aqueous solutions (concentration dissolved to) of entry CCCCCC/C=C/C(C)OC(=O)NCCCS(=O)(=O)O (stereo not shown)
Data returned: 0.5

---

molecular target: Myoglobin from horse heart digested with trypsin (Equus caballus, UniProt P68082); construct: Myoglobin from horse heart; from tissue; host or cells: horse heart; assay: Myoglobin/Trypsin digest, HPLC peak area versus RapiGest control; assay type: biochemical; settings: 0.01% surfactant, trypsin 50:1, 20 minutes at 37° C.; ratio to RapiGest control, >1 = more digestion
Sequence (P68082 2-154 limits assumed): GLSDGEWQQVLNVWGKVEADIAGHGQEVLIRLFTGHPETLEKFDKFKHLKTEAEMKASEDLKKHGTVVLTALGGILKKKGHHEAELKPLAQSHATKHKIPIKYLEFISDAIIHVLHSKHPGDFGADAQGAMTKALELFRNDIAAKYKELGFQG
Respond with MET for surfactant Pk area/RG Pk area, Myoglobin/Trypsin digest values of 0.9 and above, NOT MET for values below.

[[record]]
compound = "CCCCCCCCCCCCC(OC(=O)NCCCS(=O)(=O)O)c1ccco1 (centres unmarked)"
study_system = "Myoglobin from horse heart digested with trypsin (Equus caballus, UniProt P68082)"
assigned_category = "MET"

[[record]]
compound = "CCCCCCCCCCCC(C)(C)OC(=O)Oc1ccc(N(CCCCS(=O)(=O)[O-])CCCCS(=O)(=O)O)cc1.[Na+]"
study_system = "Myoglobin from horse heart digested with trypsin (Equus caballus, UniProt P68082)"
assigned_category = "NOT MET"

[[record]]
compound = "CCCCCCCCCCCC(C)(C)OC(=O)Oc1ccc(NCCCCS(=O)(=O)O)cc1"
study_system = "Myoglobin from horse heart digested with trypsin (Equus caballus, UniProt P68082)"
assigned_category = "NOT MET"

[[record]]
compound = "CCCCCCCC(C)(C)OC(=O)NCC(O)CS(=O)(=O)O (centres unmarked)"
study_system = "Myoglobin from horse heart digested with trypsin (Equus caballus, UniProt P68082)"
assigned_category = "NOT MET"

[[record]]
compound = "CCCCCCCCCCC(OC(=O)NCCCS(=O)(=O)O)c1ccccc1OC (centres unmarked)"
study_system = "Myoglobin from horse heart digested with trypsin (Equus caballus, UniProt P68082)"
assigned_category = "MET"


Turning now to a further record.
Data request: Dear colleague, could you confirm whether CCCCCCCCCCCC(C)(C)OC(=O)SCCS(=O)(=O)O has surfactant Pk area/RG Pk area, Myoglobin/Trypsin digest at or above 0.9?
Data returned: MET

---

test: Hydrolytic stability in 50 mM ammonium bicarbonate (reverse-phase HPLC); type: physicochemical; details: surfactant conc. 0.025% in 50 mM ammonium bicarbonate
outcome_measure: ½-life (h)
Reply with just the number (in h).

[[record]]
compound = "CCCCCCCCCCC(OC(=O)NCCCS(=O)(=O)[O-])c1ccc(OC)cc1.[Na+] (centres unmarked) [Compound 3212]"
value_reported = 21

[[record]]
compound = "CCCCCCCCCCCCC(OC(=O)NCCCS(=O)(=O)O)c1ccco1 (centres unmarked) [Compound 3224]"
value_reported = 8.3


Let's switch to this compound now.
Data request: # query: ½-life of entry CCCCCCCCCCC(OC(=O)NCCCS(=O)(=O)O)c1ccc(Br)o1 (centres unmarked) [Compound 3270]
Data returned: 6.5

---

molecular target: Myoglobin from horse heart digested with trypsin (Equus caballus, UniProt P68082); construct: Myoglobin from horse heart; from tissue; host or cells: horse heart; test: Myoglobin/Trypsin digest, HPLC peak area versus RapiGest control; type: biochemical; settings: 0.01% surfactant, trypsin 50:1, 20 minutes at 37° C.; ratio to RapiGest control, >1 = more digestion
The reader will find reported surfactant Pk area/RG Pk area, Myoglobin/Trypsin digest values listed item by item below.
Give a plain numeric answer without units written out.

The following compounds have reported results that may help.
[[record]]
compound = "CCCCCCCCCCOc1ccc(C(OCCN(CCCCS(=O)(=O)[O-])CCCCS(=O)(=O)[O-])(c2ccccc2)c2ccccc2)cc1.[Na+].[Na+]"
value_reported = 0.56

[[record]]
compound = "CCCCCCCCCCCCC(OC(=O)NCCCS(=O)(=O)O)c1ccc(OC)c(OC)c1 (stereo not shown)"
value_reported = 1.2

[[record]]
compound = "CCCCCC/C=C/C(C)OC(=O)Oc1ccc(NCCCS(=O)(=O)[O-])cc1.[Na+] (stereo not shown)"
value_reported = 2.1


Data request: # query: surfactant Pk area/RG Pk area, Myoglobin/Trypsin digest of entry CCCCCCOc1ccc(C(OCCCS(=O)(=O)[O-])(c2ccccc2)c2ccccc2)cc1.[Na+]
Data returned: 1.1

---

assay: Solubility of the surfactant; conditions: aqueous solution
outcome_measure: solubility in aqueous solutions (concentration dissolved to) (%)
Reply with just the number (in %).

[[record]]
compound = "CCCCCCCCCCC(OC(=O)NCCCS(=O)(=O)O)c1cc(OC)cc(OC)c1 (centres unmarked)"
value_reported = 1

[[record]]
compound = "CCCCCCCCCCC(OC(=O)NCCCS(=O)(=O)O)c1cccs1 (centres unmarked)"
value_reported = 1

[[record]]
compound = "CCCCCCCCCCCCCCC(OC(=O)NCCCS(=O)(=O)[O-])c1ccc(OC)cc1.[Na+] (centres unmarked)"
value_reported = 0.025


Data request: # query: solubility in aqueous solutions (concentration dissolved to) of entry CCCCCCCCCSCC(C)(C)OC(=O)NCCCS(=O)(=O)O
Data returned: 0.5

Data request: Next up: CCCCCCCCCCCCC(OC(=O)NCCCS(=O)(=O)O)c1ccco1 (centres unmarked)
Data returned: 0.25

Data request: Next up: CCCCCCCCCCOc1ccc(C(OCCc2ccc(N(CCCCS(=O)(=O)[O-])CCCCS(=O)(=O)[O-])cc2)(c2ccccc2)c2ccc(OC)cc2)cc1.[Na+].[Na+] (centres unmarked)
Data returned: 1

Data request: Next up: CCCCCCCCCCCC(C)(C)OC(=O)Nc1ccc(N(CCCCS(=O)(=O)[O-])CCCCS(=O)(=O)O)cc1.[Na+]
Data returned: 0.5

Data request: Next up: CCCCCCCCCCC(OC(=O)NCCCS(=O)(=O)O)c1ccoc1 (centres unmarked)
Data returned: 1

---

assay: Solubility of the surfactant; conditions: aqueous solution
outcome_measure: solubility in aqueous solutions (concentration dissolved to)
The reply should consist of the numeric value with the unit placed after it.

The following compounds have reported results that may help.
[[record]]
compound = "CCCCCCCCCCC(OC(=O)NCCCS(=O)(=O)O)c1ccc(Cl)o1 (stereo not drawn)"
value_reported = "1%"

[[record]]
compound = "CCCCCC/C=C/C(C)OC(=O)Oc1ccc(NCCCS(=O)(=O)[O-])cc1.[Na+] (stereo not drawn)"
value_reported = "0.5%"

[[record]]
compound = "CCCCCCCCCCCCOc1ccc(/C=N/CCCS(=O)(=O)O)cc1"
value_reported = "0.5%"

[[record]]
compound = "CCCCCC(OC(=O)SCCS(=O)(=O)O)c1ccccc1 (stereo not drawn)"
value_reported = "0.5%"

[[record]]
compound = "CCCCCCC(OC(=O)NCCCS(=O)(=O)O)c1ccc(C(F)(F)F)cc1 (stereo not drawn)"
value_reported = "0.5%"


Let's switch to this compound now.
Data request: # query: solubility in aqueous solutions (concentration dissolved to) of entry CCCCCCCC(C)(C)OC(=O)NCC(O)CS(=O)(=O)O (stereo not drawn)
Data returned: 0.5%

---

The reader will find reported ½-life values listed item by item below.
assay: Hydrolytic stability in 50 mM ammonium bicarbonate (reverse-phase HPLC); format: physicochemical; settings: surfactant conc. 1% in 50 mM ammonium bicarbonate
Reply with just the number (in h).

The following compounds have reported results that may help.
[[record]]
compound = "CCCCCCCCCCC(OC(=O)NCCCS(=O)(=O)O)c1cccs1 (stereo not shown) [Compound 3269]"
outcome_measure = "½-life"
value_reported = 135

[[record]]
compound = "CCCCCCCCCCC(OC(=O)NCCCS(=O)(=O)O)c1ccc(Br)o1 (stereo not shown) [Compound 3270]"
outcome_measure = "½-life"
value_reported = 40


Let's switch to this compound now.
Data request: # query: ½-life of entry CCCCCCCCCCC(OC(=O)NCCCS(=O)(=O)O)c1ccco1 (stereo not shown) [Compound 3211]
Data returned: 21

---

test: Acid and thermal degradation of the surfactant; conditions: 3266: 5 minutes at 95° C.
outcome_measure: thermolability (in words)

[[record]]
compound = "CCCCCCCCCCC(OC(=O)NCCCS(=O)(=O)O)c1ccoc1 (stereo not drawn)"
outcome_measure = "thermolability (in words)"
value_reported = "thermostable"

[[record]]
compound = "CCCCCCCCCCOc1ccc(C(OCCN(CCCCS(=O)(=O)[O-])CCCCS(=O)(=O)[O-])(c2ccccc2)c2ccccc2)cc1.[Na+].[Na+]"
outcome_measure = "thermolability (in words)"
value_reported = "moderate thermolability"

[[record]]
compound = "CCCCCCCCCCOc1ccc(C(OCCN(CCCCS(=O)(=O)[O-])CCCCS(=O)(=O)[O-])(c2ccccc2)c2ccc(OC)cc2)cc1.[Na+].[Na+] (stereo not drawn)"
outcome_measure = "thermolability (in words)"
value_reported = "moderate thermolability"

[[record]]
compound = "CCCCCCCCCCC(OC(=O)NCCCS(=O)(=O)O)c1ccsc1 (stereo not drawn)"
outcome_measure = "thermolability (in words)"
value_reported = "thermostable"

